pIC50 values by entry
# Target: PIK3CD (Human) (UniProt O00329)
# Sequence (O00329 whole entry, looked up): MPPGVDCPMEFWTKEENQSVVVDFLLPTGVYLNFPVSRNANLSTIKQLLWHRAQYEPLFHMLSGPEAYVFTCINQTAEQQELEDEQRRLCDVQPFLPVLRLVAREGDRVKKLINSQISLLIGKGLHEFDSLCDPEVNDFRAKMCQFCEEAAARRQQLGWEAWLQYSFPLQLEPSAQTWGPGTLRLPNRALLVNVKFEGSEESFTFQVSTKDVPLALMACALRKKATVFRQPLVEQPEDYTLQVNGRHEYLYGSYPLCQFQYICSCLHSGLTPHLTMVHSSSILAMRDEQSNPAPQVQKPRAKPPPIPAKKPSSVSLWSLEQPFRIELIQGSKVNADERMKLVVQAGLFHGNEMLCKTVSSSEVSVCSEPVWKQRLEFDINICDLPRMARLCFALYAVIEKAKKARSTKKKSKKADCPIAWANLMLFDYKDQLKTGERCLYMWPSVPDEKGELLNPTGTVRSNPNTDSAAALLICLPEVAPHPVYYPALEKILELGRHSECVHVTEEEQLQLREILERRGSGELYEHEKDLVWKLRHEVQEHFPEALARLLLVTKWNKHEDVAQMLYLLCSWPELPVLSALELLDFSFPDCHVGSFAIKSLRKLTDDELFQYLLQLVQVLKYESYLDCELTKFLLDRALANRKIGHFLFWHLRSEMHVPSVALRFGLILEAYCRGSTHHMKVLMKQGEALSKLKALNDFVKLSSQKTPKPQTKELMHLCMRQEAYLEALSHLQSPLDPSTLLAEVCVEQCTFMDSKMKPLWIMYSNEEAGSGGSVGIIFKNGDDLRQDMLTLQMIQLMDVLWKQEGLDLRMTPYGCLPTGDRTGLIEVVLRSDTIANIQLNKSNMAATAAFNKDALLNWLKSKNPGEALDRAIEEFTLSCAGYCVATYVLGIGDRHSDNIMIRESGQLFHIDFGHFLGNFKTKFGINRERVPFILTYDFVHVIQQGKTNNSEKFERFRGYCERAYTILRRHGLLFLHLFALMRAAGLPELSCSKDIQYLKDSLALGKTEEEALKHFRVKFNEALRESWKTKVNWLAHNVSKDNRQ
# Assay summary: Cell-Based Assay
# Test parameters: raji
pIC50: −log10 of the molar value.

Some solved cases for reference:
COc1ccc(C#Cc2cccc3cc([C@H](C)NC(=O)c4c(N)nn5cccnc45)n(-c4ccccc4)c(=O)c23)cn1
6.00 to 6.30
Cc1nn(C)c(C)c1C#Cc1cccc2cc([C@H](C)NC(=O)c3c(N)nn4cccnc34)n(-c3ccccc3)c(=O)c12
5.00 to 6.00
C[C@H](NC(=O)c1c(N)nn2cccnc12)c1cc2cccc(C#CC3CC3)c2c(=O)n1C1CC1
6.30 to 7.00

Data request: Supply reported pIC50 belonging to this molecule: Cc1csc(C#Cc2cccc3cc([C@H](C)NC(=O)c4c(N)nn5cccnc45)n(-c4ccccc4)c(=O)c23)n1
Data returned: 6.30 to 7.00

----------
# Target: PIK3CD (Human) (UniProt O00329)
# Assay summary: Cell-Based Assay
# Test parameters: raji
Result type: IC50

COc1cc(C#Cc2cccc3cc([C@H](C)NC(=O)c4c(N)nn5cccnc45)n(-c4ccccc4)c(=O)c23)ccn1
0.1 to 0.5 µM

Query compound follows.
Data request: Identify measured IC50 associated with C[C@H](NC(=O)c1c(N)nn2cccnc12)c1cc2cccc(C#Cc3cncs3)c2c(=O)n1-c1ccccc1
Data returned: 0.1 to 0.5 µM

----------
# Target: PIK3CD (Human) (UniProt O00329)
# Assay summary: Cell-Based Assay
# Test parameters: raji
Result type: IC50

Consider the reported IC50 for these compounds:
C[C@H](NC(=O)c1c(N)nn2cccnc12)c1nc2cccc(C#Cc3cnn(C)c3)c2c(=O)n1C
500 to 1000 nM
C[C@H](O)C#Cc1cccc2cc([C@H](C)NC(=O)c3c(N)nn4cccnc34)n(-c3ccccc3)c(=O)c12
100 to 500 nM

Data request: Using known records, supply IC50 for C[C@H](NC(=O)c1c(N)nn2cccnc12)c1cc2cccc(C#CC(C)(C)O)c2c(=O)n1-c1ccccc1
Data returned: 1000 to 10000 nM

Data request: Give IC50 for CC(=O)N1CCC(C#Cc2cccc3cc([C@H](C)NC(=O)c4c(N)nn5cccnc45)n(-c4ccccc4)c(=O)c23)CC1
Data returned: 500 to 1000 nM

----------
Documented IC50 across a set of compounds
# Target: PIK3CD (Human) (UniProt O00329)
# Assay summary: Enzyme Assay

Cc1scnc1C#Cc1cccc2cc([C@H](C)NC(=O)c3c(N)nn4cccnc34)n(-c3ccccc3)c(=O)c12
5 to 10 µM
C[C@H](NC(=O)c1c(N)nn2cccnc12)c1cc2cccc(C#C[C@@H](C)O)c2c(=O)n1-c1ccccc1
0.5 to 1 µM
C[C@H](NC(=O)c1c(N)nn2cccnc12)c1cc2cccc(C#CC(C)(C)C)c2c(=O)n1-c1ccccc1
5 to 10 µM
COc1cc(C#Cc2cccc3cc([C@H](C)NC(=O)c4c(N)nn5cccnc45)n(-c4ccccc4)c(=O)c23)ccn1
5 to 10 µM
Cc1ncccc1C#Cc1cccc2cc([C@H](C)NC(=O)c3c(N)nn4cccnc34)n(-c3ccccc3)c(=O)c12
5 to 10 µM

Data request: State, in one line, measured IC50 of C[C@H](NC(=O)c1nccnc1N)c1cc2cccc(C#Cc3cnn(C)c3)c2c(=O)n1-c1ccccc1
Data returned: 1 to 5 µM

Data request: Please indicate IC50 recorded for Cc1ncsc1C#Cc1cccc2cc([C@H](C)NC(=O)c3c(N)nn4cccnc34)n(-c3ccccc3)c(=O)c12
Data returned: 5 to 10 µM

Data request: In one line, give reported IC50 of the entry C[C@H](NC(=O)c1c(N)nn2cccnc12)c1cc2cccc(C#CCN3CCN(C)CC3)c2c(=O)n1-c1ccccc1 .
Data returned: 5 to 10 µM

----------
# Target: PIK3CD (Human)
# Assay summary: Cell-Based Assay
# Test parameters: raji
pIC50: −log10 of the molar value.
Result type: pIC50

C[C@H](NC(=O)c1c(N)nn2cccnc12)c1cc2cccc(C#CC(C)(C)N)c2c(=O)n1-c1ccccc1
5.00 to 6.00
C#Cc1cccc2nc([C@H](C)NC(=O)c3c(N)nn4cccnc34)n(-c3ccccc3)c(=O)c12
7.00 to 9.00
C[C@H](NC(=O)c1c(N)nn2cccnc12)c1cc2cccc(C#CC3CCCCC3)c2c(=O)n1-c1ccccc1
5.00 to 6.00
C[C@H](NC(=O)c1c(N)nn2cccnc12)c1cc2cccc(C#C[C@@H](C)O)c2c(=O)n1-c1ccccc1
6.30 to 7.00
C#Cc1cccc2nc([C@H](C)NC(=O)c3c(N)nn4cccnc34)n(-c3ccc(F)c(F)c3)c(=O)c12
6.30 to 7.00

Data request: Note pIC50 for the molecule shown: CC#Cc1cccc2nc([C@H](C)NC(=O)c3c(N)nn4cccnc34)n(-c3ccccc3)c(=O)c12
Data returned: 7.00 to 9.00

Data request: Given C[C@H](NC(=O)c1c(N)nn2cccnc12)c1cc2cccc(C#Cc3cscn3)c2c(=O)n1-c1ccccc1 , respond with its pIC50.
Data returned: 6.30 to 7.00

Data request: Supply measured pIC50 of C[C@H](NC(=O)c1c(N)nn2cccnc12)c1cc2cccc(C#Cc3ccnn3C)c2c(=O)n1-c1ccccc1 in your reply.
Data returned: 6.00 to 6.30

----------
# Target: PIK3CD (Human)
# Assay summary: Enzyme Assay
Result type: IC50

The cases that follow already have their IC50 on record.
Cc1ccc(-n2c([C@H](C)NC(=O)c3c(N)nn4cccnc34)cc3cccc(C#Cc4cnn(C)c4)c3c2=O)cc1
5 to 10 µM
Cc1ccccc1-n1c([C@H](C)NC(=O)c2c(N)nn3cccnc23)cc2cccc(C#Cc3cnn(C)c3)c2c1=O
5 to 10 µM
Cc1csc(C#Cc2cccc3cc([C@H](C)NC(=O)c4c(N)nn5cccnc45)n(-c4ccccc4)c(=O)c23)n1
5 to 10 µM
Cc1ncc(C#Cc2cccc3cc([C@H](C)NC(=O)c4c(N)nn5cccnc45)n(-c4ccccc4)c(=O)c23)n1C
5 to 10 µM
C[C@H](O)C#Cc1cccc2cc([C@H](C)NC(=O)c3c(N)nn4cccnc34)n(-c3ccccc3)c(=O)c12
1 to 5 µM

Data request: Please indicate IC50 recorded for C[C@H](NC(=O)c1c(N)nn2cccnc12)c1cc2cccc(C#Cc3ccn(C)n3)c2c(=O)n1-c1ccccc1
Data returned: 5 to 10 µM

Data request: Read the entry C[C@H](NC(=O)c1c(N)nn2cccnc12)c1cc2cccc(C#CC=O)c2c(=O)n1-c1ccccc1 and write its reported IC50.
Data returned: 1 to 5 µM

Data request: Read the entry C[C@H](NC(=O)c1c(N)nn2cccnc12)c1cc2cccc(C#Cc3cn[nH]c3)c2c(=O)n1-c1ccccc1 and write its reported IC50.
Data returned: 5 to 10 µM

Data request: Identify the reported IC50 for the following entry. Cc1cc(C)n2nc(N)c(C(=O)N[C@@H](C)c3cc4cccc(C#Cc5cnn(C)c5)c4c(=O)n3-c3ccccc3)c2n1
Data returned: 5 to 10 µM

Data request: Answer with the recorded IC50 of COc1cnc(C(=O)N[C@@H](C)c2cc3cccc(C#Cc4cnn(C)c4)c3c(=O)n2-c2ccccc2)c(N)n1 only.
Data returned: 5 to 10 µM

Data request: Fill in IC50 for record C[C@H](NC(=O)c1c(N)nn2cccnc12)c1cc2cccc(C#CC(C)(C)N)c2c(=O)n1-c1ccccc1
Data returned: 5 to 10 µM

Data request: Give the measured IC50 for C[C@H](NC(=O)c1c(N)nn2cccnc12)c1cc2cccc(C#CC3CNC3)c2c(=O)n1-c1ccccc1
Data returned: 1 to 5 µM

Data request: Look up IC50 of C[C@H](NC(=O)c1c(N)nn2cccnc12)c1cc2cccc(C#Cc3ccn[nH]3)c2c(=O)n1-c1ccccc1 and report it.
Data returned: 5 to 10 µM

Data request: Return reported IC50. Input molecule: CCOC(C#Cc1cccc2cc([C@H](C)NC(=O)c3c(N)nn4cccnc34)n(-c3ccccc3)c(=O)c12)OCC
Data returned: 5 to 10 µM

Data request: Hello, please tell me recorded IC50 for this one: C#Cc1cccc2nc([C@H](C)NC(=O)c3c(N)nn4cccnc34)n(C)c(=O)c12
Data returned: 1 to 5 µM

Data request: Specify measured IC50 for C[C@H](NC(=O)c1c(N)nn2cccnc12)c1cc2cccc(NC(=O)c3cnn(C)c3)c2c(=O)n1-c1ccccc1 .
Data returned: 5 to 10 µM

----------
# Target: PIK3CD (Human) (UniProt O00329)
# Assay summary: Enzyme Assay
pIC50: −log10 of the molar value.
Result type: pIC50

C[C@H](NC(=O)c1c(N)nn2cccnc12)c1cc2cccc(C#CCN(C)C)c2c(=O)n1-c1ccccc1
5.00 to 5.30
C[C@H](NC(=O)c1c(N)nn2cccnc12)c1cc2cccc(CC(=O)c3cn[nH]c3)c2c(=O)n1-c1ccccc1
5.30 to 6.00
Cc1ccc(C#Cc2cccc3cc([C@H](C)NC(=O)c4c(N)nn5cccnc45)n(-c4ccccc4)c(=O)c23)cn1
5.00 to 5.30
Cc1nnc(C#Cc2cccc3cc([C@H](C)NC(=O)c4c(N)nn5cccnc45)n(-c4ccccc4)c(=O)c23)s1
5.30 to 6.00

Now, please, on to the next compound.
Data request: Identify measured pIC50 associated with C/C=C/c1cccc2cc([C@H](C)NC(=O)c3c(N)nn4cccnc34)n(-c3ccccc3)c(=O)c12
Data returned: 5.00 to 5.30
